Test system: 843782-103-R-J1-PDC complex spheroid viability;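 note: viability read after seven days of compound exposure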
experimentSummary: Anticancer human tumor 843782-103-R-J1-PDC patient-derived lung adenocarcinoma cell line growth inhibition [RAS]
experimentalContext: curve of first compound; second compound 0.0316 µM
This section presents compounds with their documented IC50 values.

Recorded IC50, per entry:
INSERT INTO assay_data (compound, studytarget, measvalue) VALUES
  ('CCN1CCN(Cc2ccc(Nc3ncc(F)c(-c4cc(F)c5nc(C)n(C(C)C)c5c4)n3)nc2)CC1 + C=CC(=O)N1CCN(c2nc(OCC3CCCN3C)nc3c(F)c(-c4nc(N)cc(C)c4C(F)(F)F)c(Cl)cc23)C(C)C1', '843782-103-R-J1-PDC complex spheroid viability', '697 nM'),
  ('C=CC(=O)Nc1cc(Nc2nccc(-c3cn(C)c4ccccc34)n2)c(OC)cc1N(C)CCN(C)C + C=CC(=O)N1CCN(c2nc(OCC3CCCN3C)nc3c(F)c(-c4nc(N)cc(C)c4C(F)(F)F)c(Cl)cc23)C(C)C1', '843782-103-R-J1-PDC complex spheroid viability', '539 nM'),
  ('CC(C)NCC(C(=O)N1CCN(c2ncnc3c2C(C)CC3O)CC1)c1ccc(Cl)cc1 (stereo not given) + C=CC(=O)N1CCN(c2nc(OCC3CCCN3C)nc3c(F)c(-c4nc(N)cc(C)c4C(F)(F)F)c(Cl)cc23)C(C)C1', '843782-103-R-J1-PDC complex spheroid viability', '672 nM'),
  ('CCc1c2c(nc3ccc(O)cc13)-c1cc3c(c(=O)n1C2)COC(=O)[C@]3(O)CC + C#Cc1c(F)ccc2cc(O)cc(-c3ncc4c(N5CC6CCC(C5)N6)nc(OCC56CCCN5CC(F)C6)nc4c3F)c12', '843782-103-R-J1-PDC complex spheroid viability', '1.91 nM');

For the next question, use this compound.
Endpoint output: IC50 of C[C@@H](NC(=O)c1ncnc(N)c1Cl)c1ncc(C(=O)Nc2cc(C(F)(F)F)c(Cl)cn2)s1 + C=CC(=O)N1CCN(c2nc(OCC3CCCN3C)nc3c(F)c(-c4nc(N)cc(C)c4C(F)(F)F)c(Cl)cc23)C(C)C1 . Value?
> 10000 nM
